Measured apparent KD of MS2 coat protein by item
Tested on: MS2 coat protein
experiment-notes: apparent KD of MS2 coat protein; designed switch direction (-1 OFF switch, 1 ON switch): -1; higher = weaker reporter binding
condition-info: Eterna round: R95; input ligand: FMN 200 uM
State the answer as a number, implicitly in nM.

Known apparent KD of MS2 coat protein results, listed for orientation:
residue-sequence	reported-measurement
AGCCCUGGCGUCAGGAUAUCGAAACCGCAAAAGGACGAGAAGGGACAUGAGGAUCACCCAUGUAGUGAGUUAAA [Isedrecedi] (puzzle: Brourd's mod of Exclusion 4)	35.6
AGUAACUAUCACGAAAGUGAUAGUUACGCAAGCAGUGAAACAUGAGGAUCACCCAUGUCCUCAUUUGCUCGUCUUAU [Sensor 3 - 26] (puzzle: Sensor v3, turn-off variant 2)	53.9
UUUAAUUUUUUUUUUUUACAAGCUUUUUGCUCGUCUUAUACAUGAGGAUCACCCAUGUAAGUGGAAGAUAAAUUAUC [JMF 10] (puzzle: Sensor v3, turn-off variant 2)	18.2
UAUUAGAGAGGAUAUAUGAUGUGAAACAUGAGGAUCACCCAUGUAAUAUUAUGGAUGUAAAUAGAAGGCUCAUUUA [Mat - Exclusion 5 - JL mod - D15] (puzzle: Exclusion 5)	47.4
UUAUACGCUGAGGAUAUCUUCACUGAGAGGUGAAGAGAAGGCGGUACAUGAGGAUCACCCAUGUCUAUGGGCAG [Ex-6 Malc#20] (puzzle: Exclusion 6)	376

Name the recorded apparent KD of MS2 coat protein of the item CCAGGCAGUGUGAGGAUAUGCUGGUGGAUACAUCAGCAGAAGGCACAUGAGGAUCACCCAUGUGAAGAGCUUGG [Mat - Exclusion 4 - JL Mod - D99] (puzzle: Brourd's mod of Exclusion 4) in your answer.
136

Name the recorded apparent KD of MS2 coat protein of the item UUUUUCGUUUAAGCUUCGUACAUGAGGAUCACCCAUGUUUUUAGUUCUGUGUUGGUCAGUAUGGAAGUUCGUCUUAU [JR_SV3TOV1_Sub089] (puzzle: Sensor v3, turn-off variant 1) in your answer.
325

Name the recorded apparent KD of MS2 coat protein of the item GAGAAAGCAAGCAAGUGAAACAUGAGGAUCACCCAUGUCCUCAUUUGCUCGUCUUAUAAAAGCUAUCGAAAGAUAGC [Mat - Sensor v3 - turn-off var 1 - Eli Mod - D48] (puzzle: Sensor v3, turn-off variant 1) in your answer.
13.2

###

Tested on: MS2 coat protein
experiment-notes: apparent KD of MS2 coat protein; higher = weaker reporter binding
condition-info: Eterna round: R107; input ligand: tryptophan 2.4 mM
Measured apparent KD of MS2 coat protein by item
State the answer as a number, implicitly in nM.

Known apparent KD of MS2 coat protein results, listed for orientation:
residue-sequence	target-of-assay	unit	reported-measurement
ACGGAUCGGAAACGAUCCGCGGCGAGGGUGCGAGGACCGGUACGGCCGCCACUCGGGUAACAUGAGGAUCACCCAUGUCCGAAGA [ETA NuPACK+Vienna+Vienna2 #10 Same Structure]	MS2 coat protein	nM	209
ACGUCCAGGUUAAUCGUGGGCAUGGUCGAUACCAGUAUUUUAAUCUACCCUUGGCAGCGACAUGAGGAUCACCCAUGUGCGAUGA [XTheo A #16]	MS2 coat protein	nM	16.9
GUUGGUUUGGGAAGGAGCGGGUAUGUUGUCUACUUGAUCCUAACAUGAGGAUCACCCAUGUCCCAGGUAGGUCGCCCAGGCUUUG [12.aD]	MS2 coat protein	nM	98.4
GCUAGUGGCAGAAGGAGCGGCAUACUUGCAAGUGACAUGAGGAUCACCCAUGUAAGGGAAUGCCAGGUAGGUCGCUGCCACUAGC [EAB NP+V+V2 #1 +-Same Structure]	MS2 coat protein	nM	28.5
ACGUAAUGCAGAAGGAGCGUCUAUGUGUUACAUGAGGAUCACCCAUGUGUUAUGUUAUGUGGACAGGUAGGUCGCUGAAGUACGA [JR_SSArginiB_Sub005]	MS2 coat protein	nM	81

Name the recorded apparent KD of MS2 coat protein of the item AAGUCAGGAGGCGAUACCAGUUACGACAUGGCCAGUUACAUGAGGAUCACCCAUGUGCGGAACCCUUGGCAGCGCUUACAUCGCU [theeternabot_exclusion_MS2_Theo_B_1] in your answer.
24.4

Name the recorded apparent KD of MS2 coat protein of the item GGCUGACAUGAGGAUCACCCAUGUAGUGAUACCAGUAAGAGAAUAUACCCUUGGCAGCACAGGUAACAACUCGUCUCCAAAGUAA [theeternabot_sameState_MS2_Theo_A_49] in your answer.
38.2

Name the recorded apparent KD of MS2 coat protein of the item CCUUUGUAGCGAAGGAGCGCGUGACUUAGCUCAUGUAAACAUGAGGAUCACCCAUGUGACACGCAGGUAGGUCGCGCUAUGAAGG [Arg B Ex t3] in your answer.
21.9

Name the recorded apparent KD of MS2 coat protein of the item GACAGACGAGGAAGGAGCGACAUGAGGAUCACCCAUGUUGCGGGUUUAAGGUGAACUAAGUGUCAGGUAGGUCGCCUCGCUUUUA [Diatbeat] in your answer.
36.3

Name the recorded apparent KD of MS2 coat protein of the item CCGUCACAUGAGGAUCACCCAUGUGCGGAAGGAGCGGACGAUAGUCCAGGUAGGUCGCCGUAUAGCCAAUGACCAGCAGUGUCGG [XARG-A 22] in your answer.
15

Name the recorded apparent KD of MS2 coat protein of the item CACGCACGAUCGGCCGCCACUCGUGUAGCUUACAUGAGGAUCACCCAUGUAUGUUCAUUCAUAUAGAGGACCGGGAUCGUGCGUG [#05 Same State - Tryptophan B] in your answer.
11.7

###

Test system: K4 kissing-loop RNA reporter;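 also: bound reporter read as fluorescence of individual clusters on recovered sequencing chips by microscopy, with normalized cluster intensities fitted with a binding model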
experiment-notes: apparent KD of K4 kissing-loop reporter; higher = weaker reporter binding
condition-info: Eterna round: R107; input ligand: theophylline 20 uM
Measured apparent KD of K4 kissing-loop reporter by item
State the answer as a number, implicitly in µM.

Known apparent KD of K4 kissing-loop reporter results, listed for orientation:
residue-sequence	target-of-assay	unit	apparent KD of K4 kissing-loop reporter
UGACAUUGCUCAGAUACCAGACAUGAGCAUCAGCCAUGUGCCAACGUACAAAUAAUAAAUGUCCCUUGGCAGCUGAGCAAUGUCU [TheoBX 15]	K4 kissing-loop RNA reporter	µM	0.0646
AAGUCAUAGGCAGGAUAUGCUUAGUAUUAAGGCCAUAUAUACGUAUAGAGUGAUGUUUUGUACCAGGCAGAAGGGCUACAUCCGU [FMN B Excl V5 (+2U)]	K4 kissing-loop RNA reporter	µM	0.683

Print K4 kissing-loop RNA reporter apparent KD of K4 kissing-loop reporter for CAGGUGCUGAUGCGGUGGCCGGUGGUCGUGCGAGGACCGGUACGGCCGCCACUCGCAUGAGUGAUGUUCAUGUGUCGUCGUCGUC [whbob_EX_Tryp_A_t2] .
0.192

Print K4 kissing-loop RNA reporter apparent KD of K4 kissing-loop reporter for AAUGCAUAGUGAAGGAGCGCGAUAAGCAGUGAUGUUGCUUAGCUAUUAUUCAUUUUUUUAACGCAGGUAGGUCGCACUUUGCAUA [JR_ExcArginiB_Sub016] .
0.148

Print K4 kissing-loop RNA reporter apparent KD of K4 kissing-loop reporter for "GCCGUACGCAUGGAUACCAGAGAUGUUAAUCUCGAUGCCAGUGAUGUUGGCUUUAGCUAUCUCCCUUGGCAGCCAUGCGUACGGC" .
0.566

Print K4 kissing-loop RNA reporter apparent KD of K4 kissing-loop reporter for AGAGUGAUGUUUUUUUGAAGUGAGUAAUGUCGAGGACCGGUACGGCCGCCACUCGAGUGAUGUUAGUGAUGUUGAUGUAGUGAUG [?lmullin] .
0.137

###

System: MS2 coat protein
experiment-notes: apparent KD of MS2 coat protein; designed switch direction (-1 OFF switch, 1 ON switch): -1; higher = weaker reporter binding
condition-info: Eterna round: R95; input ligand: microRNA oligo, concentration not stated
assay-metric: apparent KD of MS2 coat protein

Known apparent KD of MS2 coat protein results, listed for orientation:
residue-sequence	reported-measurement
UCGGUGUCAGGAUAUACAUGAGGAUCACCCAUGUAGAGAGAAGAUAGGGAAAGAGUAGGUAGAAGGGACGAGAG [JR_Exclu3_Sub045] (puzzle: Exclusion 3)	29.1 nM
GAUUAUGCAGGCUUUAGGGACAUGAGGAUCACCCAUGUUCGUCUUAUUGAUCUAGGUACGCUGACGUACCUAGAUCU [JL-sv1-2.34 Brourd mod] (puzzle: Sensor v3, turn-off variant 1)	42.5 nM
CGAUGUUAUGUCAGGAUAUGCGUUGCGAAAGCGAUGCAGAAGGGACAUGAGGAUCACCCAUGUCCUAACCAUCG [Omei A 7] (puzzle: Brourd's mod of Exclusion 4)	10.7 nM
AUCAUGUCAGGAUAUGUGAUAUGGAUCUUCGGAUCAAGUUCACAGAAGGGACAUGAGGAUCACCCAUGUCGAAC [Ex4-3: 30] (puzzle: Exclusion 4)	40.1 nM

Name the recorded apparent KD of MS2 coat protein of the item AGUAACUAUCACGAAAGUGAUAGUUACAACAAGUGAUAAACAUGAGGAUCACCCAUGUCCUCAUUUGCUCGUCUUAU [Sensor 3 - 9] (puzzle: Sensor v3, turn-off variant 2) in your answer.
283 nM
